- Measurement Notes: AUC (0 to t) in male Sprague-Dawley rat at 4 mg/kg, iv measured after 24 hrs by LC-MS/MS analysis
- Type: ADME, organism-based
- Condition Label: in vivo
Attribute Measured: AUC(0-t) at 24 h (ng·h/mL)
Numbers only here, please. The scale is ng·h/mL.

[Q] Requested read-out: AUC(0-t) at 24 h. Entry: Cc1c(COc2cc(OCc3cccc(C#N)c3)c(CNCCO)cc2Cl)cccc1-c1cccc(OCCOCCN2CCC(O)C2)c1 (stereo unspecified)
[A] 963

====

- Measurement Notes: AUC (0 to infinity) in male Sprague-Dawley rat at 20 mg/kg, po measured after 24 hrs by LC-MS/MS analysis
- Format: ADME, organism-based
- Condition Label: in vivo
Attribute Measured: AUC(0-inf) (µg·h/mL)
Supply the numeric figure in µg·h/mL, leaving out any unit text.

[Q] # input compound: Cc1c(COc2cc(OCc3cccc(C#N)c3)c(CNCCO)cc2Cl)cccc1-c1cccc(OCCOCCN2CCC(O)C2)c1 (stereo unspecified) ; wanted: its AUC(0-inf)
[A] 0.77

====

- Measurement Notes: Terminal elimination half life in male Sprague-Dawley rat at 4 mg/kg, iv measured after 24 hrs by LC-MS/MS analysis
- Assay type: ADME, organism-based
- Condition Label: in vivo, read-out: LambdaZ (converted)
Attribute Measured: half-life (h)
Your answer should be a plain number; it is taken to be in h.

[Q] Suppose we examine the molecule Cc1c(COc2cc(OCc3cccc(C#N)c3)c(CNCCO)cc2Cl)cccc1-c1cccc(OCCOCCN2CCC(O)C2)c1 (stereo unspecified) ; what half-life value has been reported?
[A] 1.9

All values here come from ChEMBL document CHEMBL6182946.
